The measurements presented in this section are drawn from PubChem BioAssay (NCI).

For each record, write down the corresponding TGI.
Tested on: TK-10 renal
assay.method.text: NCI tumour cell line growth inhibition, 48 h

Field: TGI. Fill in for each record below.
1. O=C(NCCO)Nc1c(C(F)(F)F)cc(-c2ccccc2)[nH]c1=O
2. Cc1ccc(-c2csc(=Nc3c(C)n(C)n(-c4ccccc4)c3=O)n2CCO)cc1
3. NS(=O)(=O)c1ccc(N2N=C3c4ccccc4CC3C2c2ccc(Cl)cc2)cc1 (stereo not given)
4. O=C1CCC2(CC1)SCCCS2
5. CC(C)NC(=O)OCc1c(COC(=O)NC(C)C)n(C)c2c1ccc1ccccc12
6. CCCCN1C(=O)NC(Cc2ccccc2)C1=O (stereo not given)

Response given:
> 100 µM
> 100 µM
27.3 µM
> 100 µM
3.04 µM
> 100 µM

Field: TGI. Fill in for each record below.
1. O=c1[nH]nc(Cc2ccc(Cl)cc2)n1/N=C\CC/C=N\n1c(Cc2ccc(Cl)cc2)n[nH]c1=O
2. N.N.NCCCCN.O=C([O-])C1(C(=O)[O-])CCC1.O=C([O-])C1(C(=O)[O-])CCC1.[Pt+4].[Pt+4]
3. c1ccc(/N=N/Nc2ccc(-c3nc4ccccc4[nH]3)cc2)nc1
4. CC12CCC[C@@](C)(C(=O)OC3OC(CO)C(O)C(O)C3O)[C@H]1CCC13CC4CC(OC4(CO)[C@H]1O)[C@@H]23 (stereo not given in full)

Response given:
1. > 100 µM
2. > 100 µM
3. 35.6 µM
4. > 100 µM
